# TESTED TARGET: Heat shock protein HSP 90-alpha (Homo sapiens, UniProt P07900)
# PROTOCOL DETAILS: Inhibition of recombinant human full-length C-terminal Hsi-tagged HSP90alpha (1 to 732 residues) expressed in Escherichia coli measured after 2 to 3 hrs by FITC-labeled geldanamycin probe based fluorescence polarization assay
VALUE KIND: pIC50
Worth noting: pIC50 values are minus log10 of concentrations stated in mol/L.

                                   molecule  value_kind  measured_number
0  CCN(C(=O)c1cc(C(C)C)c(O)cc1O)c1ccc(Cn2c(=O)[nH]cc(F)c2=O)cc1       pIC50             7.35
1  CC(C)c1cc(C(=O)N(Cc2ccc(C#N)cc2)c2ccc(Cn3c(=O)c(F)cn(C4CCCO4)c3=O)cc2)c(O)cc1O (stereo unspecified)       pIC50             7.34
2  COc1ccc(CN(C(=O)c2cc(C(C)C)c(O)cc2O)c2ccc(Cn3c(=O)c(F)cn(C4CCCO4)c3=O)cc2)cc1 (stereo unspecified)       pIC50             7.23

Turning now to a further record.
Query string: Provide pIC50 value for the following molecule: CCCN(C(=O)c1cc(C(C)C)c(O)cc1O)c1ccc(Cn2c(=O)c(F)cn(C3CCCO3)c2=O)cc1 (stereo unspecified)
Result string: 7.32

----------
# TESTED TARGET: UniProtKB P07900
# PROTOCOL DETAILS: Inhibition of recombinant human full-length C-terminal Hsi-tagged HSP90alpha (1 to 732 residues) expressed in Escherichia coli measured after 2 to 3 hrs by FITC-labeled geldanamycin probe based fluorescence polarization assay
Documented pIC50 across a set of compounds
Reminder that pIC50 means the negative base-10 logarithm of the concentration expressed in mol/L.

Known pIC50 results, listed for orientation:
In [3]: df
Out[3]:
                                   compound  measured_number
0  C=CCN(C(=O)c1cc(C(C)C)c(O)cc1O)c1ccc(Cn2c(=O)[nH]cc(F)c2=O)cc1             7.32
1  CC(C)c1cc(C(=O)N(C)c2ccc(Cn3c(=O)c(F)cn(C4CCCO4)c3=O)cc2)c(O)cc1O (configuration not stated)             7.39
2  CC(C)c1cc(C(=O)N(Cc2ccccc2)c2ccc(Cn3c(=O)c(F)cn(C4CCCO4)c3=O)cc2)c(O)cc1O (configuration not stated)             7.34
3  CCN(C(=O)c1cc(C(C)C)c(O)cc1O)c1ccc(Cn2c(=O)c(F)cn(C3CCCO3)c2=O)cc1 (configuration not stated)             7.56
4  CC(C)c1cc(C(=O)N(Cc2ccc(Cl)cc2)c2ccc(Cn3c(=O)c(F)cn(C4CCCO4)c3=O)cc2)c(O)cc1O (configuration not stated)             7.26

Query string: Item "C#CCN(C(=O)c1cc(C(C)C)c(O)cc1O)c1ccc(Cn2c(=O)[nH]cc(F)c2=O)cc1" : provide pIC50
Result string: 7.26
